Catalogue of MICantibiotic values
- Test system: A. baumannii
- testMethodNotes: Checkerboard assay (antibiotic potentiation)
- Format: cell-based, Acinetobacter baumannii
- testConditions: A. baumannii AB031; antibiotic alone
resultType: MICantibiotic (µg/mL)

1. CO[C@H]1/C=C/O[C@@]2(C)Oc3c(C)c(O)c4c(O)c(c(/C=N/N5CCN(C)CC5)c(O)c4c3C2=O)NC(=O)/C(C)=C\C=C\[C@H](C)[C@H](O)[C@@H](C)[C@@H](O)[C@@H](C)[C@H](OC(C)=O)[C@@H]1C [Rifampicin] ... 4
2. CN(C)c1ccc(O)c2c1C[C@H]1C[C@H]3[C@H](N(C)C)C(O)=C(C(N)=O)C(=O)[C@@]3(O)C(O)=C1C2=O [Minocycline] ... 2
3. C[C@@H]1CN2c3c(cc4c(N5C(=O)OC[C@@H]5C)noc4c3F)CC3(C(=O)NC(=O)NC3=O)[C@H]2[C@H](C)O1 [Zoliflodacin] ... 128
4. C[C@H]1COc2c(N3CCN(C)CC3)c(F)cc3c(=O)c(C(=O)O)cn1c23 [Levofloxacin] ... 0.25
